Catalogue of Agonistic activity at 10 μmol/l (%) values
# target.or.test.system: human GPR120 (Homo sapiens, UniProt Q5NUL3)
# Construct: expressed in transfected cells
# Sequence (Q5NUL3 1-361): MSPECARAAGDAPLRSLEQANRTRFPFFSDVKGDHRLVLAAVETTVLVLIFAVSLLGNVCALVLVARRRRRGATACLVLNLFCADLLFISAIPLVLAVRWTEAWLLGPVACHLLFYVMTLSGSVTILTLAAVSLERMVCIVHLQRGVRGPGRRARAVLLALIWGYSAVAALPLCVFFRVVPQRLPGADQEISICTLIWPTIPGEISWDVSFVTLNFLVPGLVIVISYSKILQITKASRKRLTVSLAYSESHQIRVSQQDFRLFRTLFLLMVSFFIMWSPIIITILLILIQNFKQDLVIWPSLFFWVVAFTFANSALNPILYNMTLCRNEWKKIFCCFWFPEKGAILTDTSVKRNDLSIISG
# test.name: Measurement of intracellular calcium concentration (FLIPR), GPR120 agonist action
# Assay type: cell-based
# experimental.context: 10 μmol/l test compound, human GPR120 expression CHO cells, Fluo-4 AM
# Experimental: Using Lipofectamine 2000 (Invitrogen), cDNA of GPR120 receptor was transfected into CHO/NFAT-BLA cells, and drug-resistant cells were isolated to obtain GPR120 stable expression strains. […] On the day before the measurement day, 4 μM Fluo-4 AM (fluorescence calcium indicator reagent) was incubated to be introduced into the human GPR120 expression CHO cells plated at 20000 cells per well of a 96-well black plate (ViewPlate; Packard) in the presence of 2.5 mM probenecid in a CO2 incubator for 1 hour. […]
observation.type: Agonistic activity at 10 μmol/l (%)

> print(dat)
                                    compound                     target.or.test.system  measured.result
 1  COc1cccc(C(F)COc2ccc(-c3cc(O)no3)cc2)c1 (centres unmarked)  human GPR120 (Homo sapiens, UniProt Q5NUL3)             110%
 2  CC(C)Oc1cccc(C[C@@H](C)Oc2ccc(-c3cc(O)no3)cc2)c1  human GPR120 (Homo sapiens, UniProt Q5NUL3)              94%
 3  Cc1cccc(OC(C)Cc2ccc(-c3cc(O)no3)cc2)c1 (centres unmarked)  human GPR120 (Homo sapiens, UniProt Q5NUL3)              91%
 4  CC(C)Oc1cc(CC(C)Oc2ccc(-c3cc(O)no3)cc2)ccn1.Cl (centres unmarked)  human GPR120 (Homo sapiens, UniProt Q5NUL3)              99%
 5  CC(Cc1ccc(-c2cc(O)no2)cc1)Oc1cccc(OC(F)(F)F)c1 (centres unmarked)  human GPR120 (Homo sapiens, UniProt Q5NUL3)              96%
 6  CC(Cc1ccc(-c2cc(O)no2)cc1)Oc1ccc(Cl)cc1Cl (centres unmarked)  human GPR120 (Homo sapiens, UniProt Q5NUL3)              97%
 7  CC(C)Cc1cccc(CC(C)Oc2ccc(-c3cc(O)no3)cc2)c1 (centres unmarked)  human GPR120 (Homo sapiens, UniProt Q5NUL3)             100%
 8  CC(C)Oc1cccc(CC(C)Oc2ccc(-c3cc(O)no3)c(F)c2)c1 (centres unmarked)  human GPR120 (Homo sapiens, UniProt Q5NUL3)              98%
 9  CC(C)Oc1ccccc1C(C)COc1ccc(-c2cc(O)no2)c(F)c1 (centres unmarked)  human GPR120 (Homo sapiens, UniProt Q5NUL3)              90%
10  CC(Cc1ccc(-c2cc(O)no2)cc1)Oc1ccc(Cl)cc1F (centres unmarked)  human GPR120 (Homo sapiens, UniProt Q5NUL3)              97%
11  CC(C)Oc1cccc(C(C)(C)COc2ccc(-c3cc(O)no3)cn2)c1.O=C(O)C(F)(F)F  human GPR120 (Homo sapiens, UniProt Q5NUL3)              99%
12  C[C@H](Cc1cccc(OC2CC2)c1)Oc1ccc(-c2cc(O)no2)cc1  human GPR120 (Homo sapiens, UniProt Q5NUL3)              93%
13  CC(C)Oc1cccc(C[C@@H](C)Oc2ncc(-c3cc(O)no3)cn2)c1  human GPR120 (Homo sapiens, UniProt Q5NUL3)              91%
14  CC(Cc1ccc(-c2cc(O)no2)cc1)Oc1ccc(Cl)cc1 (centres unmarked)  human GPR120 (Homo sapiens, UniProt Q5NUL3)              96%

* * *

Catalogue of activation at 10 µM values
# target.or.test.system: human GPR120 (Homo sapiens, UniProt Q5NUL3)
# Construct: expressed in transfected cells
# Sequence (Q5NUL3 1-361): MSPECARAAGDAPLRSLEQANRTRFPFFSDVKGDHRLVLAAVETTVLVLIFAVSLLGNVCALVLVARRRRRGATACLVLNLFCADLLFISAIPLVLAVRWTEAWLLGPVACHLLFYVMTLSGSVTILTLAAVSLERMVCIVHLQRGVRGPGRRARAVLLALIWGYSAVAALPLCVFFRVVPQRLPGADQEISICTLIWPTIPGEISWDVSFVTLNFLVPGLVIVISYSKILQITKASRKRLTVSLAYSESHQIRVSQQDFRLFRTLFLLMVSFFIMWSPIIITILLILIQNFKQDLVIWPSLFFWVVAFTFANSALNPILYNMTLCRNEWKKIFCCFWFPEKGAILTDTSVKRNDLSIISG
# test.name: Measurement of intracellular calcium concentration (FLIPR), GPR120 agonist action
# Assay type: cell-based
# experimental.context: 10 μmol/l test compound, human GPR120 expression CHO cells, Fluo-4 AM, read-out: Agonistic activity at 10 μmol/l (%)
Structures can show the parent of a compound that is named as a salt.
observation.type: activation at 10 µM (%)

> print(dat)
                                    compound     observation.type  measured.result
 1  CC(C)Oc1cccc(OC(C)Cc2ccc(-c3cc(O)no3)cc2)c1 (stereo not drawn) [Example 52]  activation at 10 µM               96
 2  CC(C)Oc1cccc(N(C)C(C)Cc2ccc(-c3cc(O)no3)cc2)c1 (stereo not drawn) [Example 58]  activation at 10 µM               91
 3  CC(C)Oc1cccc(C(F)(F)COc2ccc(-c3cc(O)no3)cc2)c1 [Example 36]  activation at 10 µM              100
 4  CC(C)Oc1cccc(C[C@@H](C)Oc2ccc(-c3cc(O)no3)c(F)c2)c1 [Example 28]  activation at 10 µM               97
 5  CC(C)Oc1cccc(C[C@@H](C)Oc2ccc(-c3cc(O)no3)cn2)c1 [Example 26, Hydrochloride]  activation at 10 µM              100
 6  COc1cc(-c2cc(O)no2)ccc1OC(C)Cc1cccc(OC(C)C)c1 (stereo not drawn) [Example 61]  activation at 10 µM               79
 7  CC(Cc1cccc(OC(C)C)c1)Nc1ccc(-c2cc(O)no2)cc1 (stereo not drawn) [Example 59, Trifluoroacetate]  activation at 10 µM               96
 8  CC(C)Oc1cccc(C(C)SCc2ccc(-c3cc(O)no3)cc2)c1 (stereo not drawn) [Example 50]  activation at 10 µM               80
 9  CC(C)Oc1cccc(CN(C)Cc2ccc(-c3cc(O)no3)cc2)c1 [Example 9]  activation at 10 µM              100
10  CC(C)Oc1cccc(CC(C)Oc2ccc(-c3cc(O)no3)cc2)c1 (stereo not drawn) [Example 1]  activation at 10 µM              104
11  CC(Cc1cccc(N(C)C)c1)Oc1ccc(-c2cc(O)no2)cc1 (stereo not drawn) [Example 45, Hydrochloride]  activation at 10 µM               85
12  CC(C)Oc1cc(C[C@H](C)Oc2ccc(-c3cc(O)no3)cc2)ccn1 [Example 63, Sodium Salt]  activation at 10 µM              106

* * *

# target.or.test.system: human GPR120 (Homo sapiens, UniProt Q5NUL3)
# Construct: expressed in transfected cells
# Sequence (Q5NUL3 1-361): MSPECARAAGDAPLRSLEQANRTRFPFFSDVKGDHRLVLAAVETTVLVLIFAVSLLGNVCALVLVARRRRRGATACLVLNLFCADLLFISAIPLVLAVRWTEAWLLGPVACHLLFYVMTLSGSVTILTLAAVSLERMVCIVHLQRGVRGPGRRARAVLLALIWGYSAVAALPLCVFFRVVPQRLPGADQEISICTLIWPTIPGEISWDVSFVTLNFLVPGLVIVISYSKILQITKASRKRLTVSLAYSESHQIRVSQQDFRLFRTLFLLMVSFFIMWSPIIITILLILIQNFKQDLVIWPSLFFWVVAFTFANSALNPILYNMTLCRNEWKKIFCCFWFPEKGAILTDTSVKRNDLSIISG
# test.name: Measurement of intracellular calcium concentration (FLIPR), GPR120 agonist action
# Type: cell-based
# experimental.context: 10 μmol/l test compound, human GPR120 expression CHO cells, Fluo-4 AM, read-out: Agonistic activity at 10 μmol/l (%)
Structures can show the parent of a compound that is named as a salt.
observation.type: activation at 10 µM

> print(dat)
                                    molecule                     target.or.test.system  measured.result
 1  CCOc1cccc(CC(C)Oc2ccc(-c3cc(O)no3)cc2F)c1 (stereo not drawn)  human GPR120 (Homo sapiens, UniProt Q5NUL3)              96%
 2  CCOc1cccc(CC(C)Oc2ccc(-c3cc(O)no3)cn2)c1 (stereo not drawn) [Example 43, Trifluoroacetate]  human GPR120 (Homo sapiens, UniProt Q5NUL3)              94%
 3  C[C@H](Cc1ccc(OC(F)(F)F)cc1)Oc1ccc(-c2cc(O)no2)cc1  human GPR120 (Homo sapiens, UniProt Q5NUL3)              86%
 4  CC(C)Oc1cccc(N(C)CCc2ccc(-c3cc(O)no3)cc2)c1 [Example 48, Trifluoroacetate]  human GPR120 (Homo sapiens, UniProt Q5NUL3)              92%
 5  C[C@H](Cc1ccc(Cl)c(OC(F)(F)F)c1)Oc1ccc(-c2cc(O)no2)cc1  human GPR120 (Homo sapiens, UniProt Q5NUL3)              91%
 6  CC(C)Oc1cccc(C(C)(C)COc2ccc(-c3cc(O)no3)c(F)c2)c1  human GPR120 (Homo sapiens, UniProt Q5NUL3)              92%
 7  CC(C)Oc1cc(C[C@@H](C)Oc2ccc(-c3cc(O)no3)cc2)ccn1 [Example 64, Sodium Salt]  human GPR120 (Homo sapiens, UniProt Q5NUL3)             104%
 8  CC(C)Oc1cccc(C(C)OCc2ccc(-c3cc(O)no3)cc2)c1 (stereo not drawn)  human GPR120 (Homo sapiens, UniProt Q5NUL3)              92%
 9  COc1cc(OC)cc(OC(C)Cc2ccc(-c3cc(O)no3)cc2)c1 (stereo not drawn)  human GPR120 (Homo sapiens, UniProt Q5NUL3)              97%
10  CC(C)Oc1cccc(C(F)(F)COc2ccc(-c3cc(O)no3)c(F)c2)c1  human GPR120 (Homo sapiens, UniProt Q5NUL3)              98%
11  CC(C)Oc1cccc(C[C@H](C)Oc2ccc(-c3cc(O)no3)cc2)c1  human GPR120 (Homo sapiens, UniProt Q5NUL3)              95%
12  CCC(Cc1cccc(OC(C)C)c1)Oc1ccc(-c2cc(O)no2)cc1 (stereo not drawn)  human GPR120 (Homo sapiens, UniProt Q5NUL3)              90%
13  CC(C)Oc1cccc(C(=O)COc2ccc(-c3cc(O)no3)cc2)c1  human GPR120 (Homo sapiens, UniProt Q5NUL3)              98%
14  CC(C)Oc1cccc(C(C)COc2ccc(-c3cc(O)no3)cc2)c1 (stereo not drawn)  human GPR120 (Homo sapiens, UniProt Q5NUL3)              98%
15  CC(C)Oc1cccc(CCN(C)c2ccc(-c3cc(O)no3)cc2)c1 [Example 60, Trifluoroacetate]  human GPR120 (Homo sapiens, UniProt Q5NUL3)              65%
16  CC(C)Oc1cccc(C(C)(C)COc2ccc(-c3cc(O)no3)cc2)c1  human GPR120 (Homo sapiens, UniProt Q5NUL3)              94%
17  CCOc1cccc(CC(C)Oc2ccc(-c3cc(O)no3)c(F)c2)c1 (stereo not drawn)  human GPR120 (Homo sapiens, UniProt Q5NUL3)              97%
18  CC(C)Oc1cccc(CC(C)Oc2ccc(-c3cc(O)no3)cn2)c1 (stereo not drawn)  human GPR120 (Homo sapiens, UniProt Q5NUL3)              98%
